FYI, the data here is from patent US11230542B2.

Consider the following compounds; for each one, report its activity at 0.1 µM.
- System: CHO cells
- EXPERIMENT_SUMMARY: Protein translation assay (puromycin incorporation in CHO cells, unstressed or Tg-stressed)
- Format: cell-based, Chinese hamster
- CONDITION_DETAILS: Cricetulus griseus; CHO cells stressed with 300 nM Tg; media alone 100%, Tg alone 0%; read-out: % Recovery of protein expression (100 nM test compound)
Record the value in %, omitting the unit from your answer.

IN: # return recorded activity at 0.1 µM for input O=C(COc1ccc(Cl)cc1)N[C@H]1CC[C@H](NC[C@@H](O)COc2ccc(Cl)cc2)CC1 (single isomer, unassigned)
OUT: 69.4

IN: For O=C(NC1CCN(C[C@@H](O)COc2ccc(Cl)c(F)c2)CC1)c1ccc2cc(Cl)ccc2n1 (single isomer, unassigned) , write its activity at 0.1 µM.
OUT: 51.5

IN: Answer with the recorded activity at 0.1 µM for the compound listed here: "O=C(NC1CCN(CCCOc2ccc(Cl)c(F)c2)CC1)c1ccc2cc(Cl)ccc2n1"
OUT: 43.4

IN: Given O=C(NC1CCN(CC(O)COc2ccc(Cl)c(F)c2)CC1)c1cc2cc(Cl)ccc2o1 (stereo not shown) , respond with its activity at 0.1 µM.
OUT: 48.4
